Molecular target: Stromal cell-derived factor 1 (Homo sapiens, UniProt P48061)
Sequence (P48061 whole entry): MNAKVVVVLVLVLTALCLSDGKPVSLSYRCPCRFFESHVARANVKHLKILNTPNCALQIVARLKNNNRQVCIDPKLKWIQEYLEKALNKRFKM
Assay: Binding affinity to wild type CXCL12 (unknown origin) by NMR spectroscopy
Settings: read-out: Kd
pKd: −log10 of the molar value.
Listing of entries alongside the reported pKd.
Measured endpoint: pKd

| Compound smiles | Target or system | Measured endpoint | Experimental result |
| --- | --- | --- | --- |
| C[N+]1(c2nc(SCC(=O)O)nc(SCC(=O)O)n2)CCOCC1 | Stromal cell-derived factor 1 (Homo sapiens, UniProt P48061) | pKd | 2.52 |
| O=C(O)CSc1nc(SCC(=O)O)nc(N2CCOCC2)n1 | Stromal cell-derived factor 1 (Homo sapiens, UniProt P48061) | pKd | 3.63 |
| O=C(O)CSc1nc(SCC(=O)O)nc(-c2ccc(N3CCOCC3)cc2)n1 | Stromal cell-derived factor 1 (Homo sapiens, UniProt P48061) | pKd | 3.51 |
